# Test system: H1299 (lung)
# Measurement Protocol: in vitro antiproliferation assay, H1299
# Type: cell-based
# Recorded Conditions: Homo sapiens, NCI-H1299; H1299 lung tumor cell line
# Method: The four stereoisomers isomers of (1S, 2R)-1-(2,4-pyrimidinediamino)-2-cyclopentanecarboxamide (1), (2), (3) and (4) were prepared as described in Examples 1-4. The racemic mixture of the cis compound was prepared as described herein. The IC50 values of various compounds against different tumor cell lines were determined using standard in vitro antiproliferation assays. The tumor cell lines tested were as follows: A549 (lung); H1299 (lung); DU145 (prostate); HCT116 (colon/p53wt); and mirapaca.
pIC50: −log10 of the molar value.

| Compound String | pIC50 |
| --- | --- |
| Cc1cc(Nc2ncc(F)c(N[C@H]3CCC[C@H]3C(N)=O)n2)ccc1N1CCN(C)CC1 | > 5.00 |
| Cc1cc(Nc2ncc(F)c(N[C@@H]3CCC[C@H]3C(N)=O)n2)ccc1N1CCN(C)CC1 | > 5.30 |
| Cc1cc(Nc2ncc(F)c(N[C@H]3CCC[C@@H]3C(N)=O)n2)ccc1N1CCN(C)CC1 | < 4.70 |
